Cited source for all entries: patent US20100099561A1

- Tested on: velvetleaf (Abutilon theophrasti)
- Method Description: Test A preemergence, velvetleaf
- Assay type: in vivo
- Measurement Setup: 500 g ai/ha, 0 to 100 scale (0 no effect, 100 complete control)
Exercise: state measured Plant response rating, Velvetleaf for each of the compounds provided.
A bare number is all that is needed in reply.

Give the reported Plant response rating, Velvetleaf for Cn1c(=O)c(C[S+]([O-])C2=NOC(C)(C)C2)nc2ccccc21 (centres unmarked) [Compound 24] (system: velvetleaf (Abutilon theophrasti)).
0

Which measured Plant response rating, Velvetleaf belongs to CC1(C)CC([S+]([O-])Cc2c(C(F)(F)C(F)(F)F)nc3n(c2=O)CCCC3)=NO1 (centres unmarked) [Compound 19] , tested on velvetleaf (Abutilon theophrasti)?
0

Observed Plant response rating, Velvetleaf on velvetleaf (Abutilon theophrasti) for CCn1c(=O)c(CS(=O)(=O)C2=NOC(C)(C)C2)nc2ccccc21 [Compound 28] , please.
0

Param readout = Plant response rating, Velvetleaf; param system = velvetleaf (Abutilon theophrasti); param query = CC1(C)CC([S+]([O-])Cc2c(C(F)(F)F)nc3n(c2=O)CCC3)=NO1 (centres unmarked) [Compound 10] ; response: value
0

Provide the documented Plant response rating, Velvetleaf with velvetleaf (Abutilon theophrasti) as the system for CC1(C)CC([S+]([O-])Cc2c(C(F)(F)C(F)(F)F)nc3n(c2=O)CCC3)=NO1 (centres unmarked) [Compound 27]
60

Reported Plant response rating, Velvetleaf for velvetleaf (Abutilon theophrasti), given CC1(C)CC(S(=O)(=O)Cc2c(C(F)(F)Cl)nc3n(c2=O)CCC3)=NO1 [Compound 18] ?
60

Give the reported Plant response rating, Velvetleaf for CC1(C)CC([S+]([O-])Cc2c(C(F)(F)F)nc3cnccn3c2=O)=NO1 (centres unmarked) [Compound 54] (system: velvetleaf (Abutilon theophrasti)).
0

Report Plant response rating, Velvetleaf for CC1(C)CC(S(=O)(=O)Cc2c(C(F)(F)Cl)nc3n(c2=O)CCCC3)=NO1 [Compound 30] tested on velvetleaf (Abutilon theophrasti).
60

Find the measured Plant response rating, Velvetleaf: item CC1(C)CC(S(=O)(=O)Cc2c(C(F)(F)C(F)(F)F)nc3n(c2=O)CCCC3)=NO1 [Compound 21] , target or system velvetleaf (Abutilon theophrasti).
60

GET /values?readout=Plant response rating, Velvetleaf&system=velvetleaf (Abutilon theophrasti)&item= CC1(C)CC(S(=O)(=O)Cc2c(C(F)(F)F)nc3n(c2=O)CCS3)=NO1 [Compound 6]
80

Tell me reported Plant response rating, Velvetleaf for CC1(C)CC(S(=O)(=O)Cc2c(C(F)(F)F)nc3ccon3c2=O)=NO1 [Compound 42] , tested with velvetleaf (Abutilon theophrasti).
0

What value of Plant response rating, Velvetleaf on velvetleaf (Abutilon theophrasti) does CC1(C)CC([S+]([O-])Cc2c(C(F)(F)Cl)nc3n(c2=O)CCCS3)=NO1 (centres unmarked) [Compound 36] have?
0

# returns recorded Plant response rating, Velvetleaf (system: velvetleaf (Abutilon theophrasti)) for CC1(C)CC(S(=O)(=O)Cc2c(C(F)(F)F)nc3ccccn3c2=O)=NO1 [Compound 7]
0

Request: Plant response rating, Velvetleaf, test system velvetleaf (Abutilon theophrasti), entry CCn1c(=O)c(C[S+]([O-])C2=NOC(C)(C)C2)nc2cccnc21 (centres unmarked) [Compound 38]
0

Requested read-out Plant response rating, Velvetleaf, target or system velvetleaf (Abutilon theophrasti), entry Cn1c(=O)c(CS(=O)(=O)C2=NOC(C)(C)C2)nc2ccccc21 [Compound 23]
0

State its Plant response rating, Velvetleaf on velvetleaf (Abutilon theophrasti): Cc1cc2nc(C(F)(F)F)c(CS(=O)(=O)C3=NOC(C)(C)C3)c(=O)n2o1 [Compound 53]
0

What measured Plant response rating, Velvetleaf is associated with CC1(C)CC(S(=O)(=O)Cc2c(C(F)(F)C(F)(F)F)nc3n(c2=O)CCCO3)=NO1 [Compound 55] on velvetleaf (Abutilon theophrasti)?
30
